# credit: ChEMBL document CHEMBL3880411

Parameter IC50: see the listing below.
- ASSAY_METHOD_TEXT: Cytotoxicity against human MCF7 cells assessed as reduction in cell viability after 96 hrs by CellTiter-Glo luminescence assay or methylene blue assay
- Type: functional, cell-based
- RUN_PARAMETERS: MCF7, 96 h
MEASURED_ENDPOINT: IC50

- CNc1cc(O)c2c(c1)/C=C/C[C@H](O)[C@H](O)C(=O)/C=C\[C@@H](C)[C@H](C)OC2=O: > 10 µM
- CCNc1cc(O)c2c(c1)/C=C/C[C@H](O)[C@H](O)C(=O)/C=C\[C@@H](C)[C@H](C)OC2=O [E-6201]: > 10 µM

###

- ASSAY_METHOD_TEXT: Cytotoxicity against human MES-SA cells assessed as reduction in cell viability after 96 hrs by CellTiter-Glo luminescence assay or methylene blue assay
- Type: functional, cell-based
MEASURED_ENDPOINT: IC50 (µM)

- CNc1cc(O)c2c(c1)/C=C/C[C@H](O)[C@H](O)C(=O)/C=C\[C@@H](C)[C@H](C)OC2=O: 5.78
- CCNc1cc(O)c2c(c1)/C=C/C[C@H](O)[C@H](O)C(=O)/C=C\[C@@H](C)[C@H](C)OC2=O [E-6201]: 7.49

###

- EXPERIMENTAL_TARGET: Dual specificity mitogen-activated protein kinase kinase 1 (Homo sapiens, UniProt Q02750)
- Sequence (Q02750 whole entry): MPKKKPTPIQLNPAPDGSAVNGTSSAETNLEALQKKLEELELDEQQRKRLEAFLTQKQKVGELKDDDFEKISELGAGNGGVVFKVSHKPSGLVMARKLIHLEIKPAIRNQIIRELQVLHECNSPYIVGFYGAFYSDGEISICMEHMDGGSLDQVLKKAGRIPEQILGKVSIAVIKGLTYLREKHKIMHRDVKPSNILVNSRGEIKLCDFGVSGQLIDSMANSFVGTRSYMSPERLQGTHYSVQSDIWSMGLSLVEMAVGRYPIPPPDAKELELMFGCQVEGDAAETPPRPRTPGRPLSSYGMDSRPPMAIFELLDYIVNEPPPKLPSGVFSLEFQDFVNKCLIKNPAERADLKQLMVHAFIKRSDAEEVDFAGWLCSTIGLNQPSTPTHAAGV
- ASSAY_METHOD_TEXT: Inhibition of MEK1 (unknown origin) using ERK2 as substrate after 40 mins by ELISA
Parameter IC50: see the listing below.
MEASURED_ENDPOINT: IC50

- C[C@@H]1/C=C\C(=O)[C@@H](O)[C@@H](O)C/C=C/c2cc(NCCN3CCN(C)CC3)cc(O)c2C(=O)O[C@H]1C: 471 to 946 nM
- C[C@@H]1/C=C\C(=O)[C@@H](O)[C@@H](O)C/C=C/c2cc(NCCO)cc(O)c2C(=O)O[C@H]1C: 91 to 198 nM
- C[C@@H]1/C=C\C(=O)[C@@H](O)[C@@H](O)C/C=C/c2cc(NCCN3CCOCC3)cc(O)c2C(=O)O[C@H]1C: 91 to 101 nM

###

Parameter pIC50: see the listing below.
- EXPERIMENTAL_TARGET: Dual specificity mitogen-activated protein kinase kinase 1 (Homo sapiens)
- ASSAY_METHOD_TEXT: Inhibition of MEK1 (unknown origin) using ERK2 as substrate after 40 mins by ELISA
pIC50: −log10 of the molar value.
MEASURED_ENDPOINT: pIC50

• CNC(=O)CNc1cc(O)c2c(c1)/C=C/C[C@H](O)[C@H](O)C(=O)/C=C\[C@@H](C)[C@H](C)OC2=O = 6.18
• CCNc1cc(O)c2c(c1)/C=C/C[C@@H]1OC(=O)O[C@@H]1C(=O)/C=C\[C@@H](C)[C@H](C)OC2=O = 6.84
• CCNc1cc(O)c2c(c1)/C=C/C[C@H](OC(=O)C(F)(F)F)[C@@H](O)C(=O)/C=C\[C@@H](C)[C@H](C)OC2=O = 7.10
• C[C@@H]1/C=C\C(=O)[C@@H](O)[C@@H](O)C/C=C/c2cc(NCCn3ccnc3)cc(O)c2C(=O)O[C@H]1C = 6.92
• C[C@@H]1/C=C\C(=O)[C@@H](O)[C@@H](O)C/C=C/c2cc(NCC(=O)O)cc(O)c2C(=O)O[C@H]1C = 6.44
• C[C@@H]1/C=C\C(=O)[C@@H](O)[C@@H](O)C/C=C/c2cc(N3CCNC3=O)cc(O)c2C(=O)O[C@H]1C = 6.32

###

- EXPERIMENTAL_TARGET: Dual specificity mitogen-activated protein kinase kinase 1 (Homo sapiens)
- ASSAY_METHOD_TEXT: Inhibition of MEK1 (unknown origin) using ERK2 as substrate after 40 mins by ELISA
MEASURED_ENDPOINT: IC50

• C[C@@H]1/C=C\C(=O)[C@@H](O)[C@@H](O)C/C=C/c2cc(NCC(O)CO)cc(O)c2C(=O)O[C@H]1C (stereo partly specified) = 56 to 101 nM
• C[C@@H]1/C=C\C(=O)[C@@H](O)[C@@H](O)C/C=C/c2cc(NCCN3CCCC3)cc(O)c2C(=O)O[C@H]1C = 356 to 640 nM
• C[C@@H]1/C=C\C(=O)[C@@H](O)[C@@H](O)C/C=C/c2cc(NOCC(=O)O)cc(O)c2C(=O)O[C@H]1C = > 330 nM
• C[C@@H]1/C=C\C(=O)[C@@H](O)[C@@H](O)C/C=C/c2cc(NCCOP(=O)(O)O)cc(O)c2C(=O)O[C@H]1C = > 330 nM
• C[C@@H]1/C=C\C(=O)[C@@H](O)[C@@H](O)C/C=C/c2cc(CCCn3ccnc3)cc(O)c2C(=O)O[C@H]1C = 9.5 to 37 nM
• C[C@@H]1/C=C\C(=O)[C@@H](O)[C@@H](O)C/C=C/c2cc(NCC(N)=O)cc(O)c2C(=O)O[C@H]1C = 99 to 310 nM
